B1: Hairpin Ribozyme (parent)
chain: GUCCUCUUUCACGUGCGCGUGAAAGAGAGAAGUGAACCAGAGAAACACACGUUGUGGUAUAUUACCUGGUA

# Variants of: B1
# assay-remarks: self-cleavage, relative activity (ratio to wild type); higher = more cleavage; co-transcriptional
We begin with a simple list: items and their reported self-cleavage.
Write the value as a bare number.

Field: example entries. Status: answers known.
- A28U U55G: 0.159
- G1A U62G: 0.0492
- U55C U62C: 0.315
- U2C G29U: 0.0528
- U14C C38G: 0.246

Would you kindly look at the next entry?
GET /value?item= U9C A35U &field=self-cleavage returns 0.708
